- protocol.details: NFAT Signaling Pathway (AID 444);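 further: carbachol stimulus at about its EC50 of 1 µM final; on the % scale 0 is the no-effect control and ±100 the full control effect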
- condition.notes: Jurkat NFAT-bla M1, carbachol, beta-lactamase ratio, 5 h; at 17.2 µM (top of the series) unless noted
Results filed as inconclusive are left out.
assay.metric: activity change, negative = inhibition (%)
Numbers only, in %.

>>> number("COc1cccc(C=NCCNC(=O)c2nonc2N)c1O")
-9.52
>>> number("CC1(C)CC(=O)C2=C(C1)N(CC1CCCO1)C(=O)C2(O)C(F)(F)F (stereo unspecified)")
0.206
>>> number("COc1ccc(OC)c(C2/C(=C(\\O)c3ccc(OC)c(Cl)c3)C(=O)C(=O)N2CCN(C)C)c1 (stereo unspecified)")
2.23
>>> number("O=C(Nc1ncn[nH]1)c1c(Cl)ccc(Cl)c1Cl")
1.62

Need activity change, negative = inhibition for each of these compounds.
1. CC(O)(C#CCN1CCOCC1)c1ccccc1 (stereo unspecified)
2. CCCSc1nc(O)c(C2OC(=O)c3c2ccc(OC)c3OC)c(=O)n1C (stereo unspecified)

Result ::
8.45
-4.09

----------
- system.name: Cytochrome P450 1A2 (Homo sapiens)
- protocol.details: p450-cyp1a2 (AID 410)
- condition.notes: recombinant CYP1A2, luciferin-ME demethylation, luminescence; series mostly up to 57 µM
- Method: The P450 gene superfamily is involved in metabolism and the clearance of xenobiotics. This assay used human CYP1A2 to measure the demethylation of luciferin 6' methyl ether (Luciferin-ME; Promega-Glo) to luciferin. The luciferin is then measured by luminescence after the addition of a luciferase detection regeant. Luciferin-ME concentration in the assay was equal to its Km for CYP1A2. NCGC Assay Protocol Summary: […]
Inconclusive results are not listed. Active and inactive are the calls of the source. The call rests on the fitted dose curve.
In this exercise, the only acceptable responses are active, inactive

# example entries with known answers
>>> class_assignment("O=C1[C@@H]2C=CC=CC2=NC(=S)N1CCN1CCC(=C(c2ccc(F)cc2)c2ccc(F)cc2)CC1")
"inactive"
>>> class_assignment("CC[C@H]1C(=O)OC[C@@H]1Cc1cncn1C")
"inactive"
>>> class_assignment("CC(C)[C@@H](CC(=O)N[C@@H]1CCCC[C@H]1C(=O)N[C@H](CC(=O)N[C@@H](CCC(=O)O)CC(=O)O)Cc1c[nH]c2ccccc12)NC(=O)C[C@H](Cc1ccccc1)NC(=O)[C@@H]1CCCC[C@H]1N")
"inactive"
>>> class_assignment("C[C@@H](C(=O)Nc1ccc2ccccc2c1)[C@H]1C[C@]1(C)[C@H](NP(=O)(c1ccccc1)c1ccccc1)c1ccccc1")
"active"
>>> class_assignment("C=CCN1CCc2c(cc(O)c(O)c2Br)[C@H](c2ccccc2)C1")
"active"

Query :: Please indicate how the test categorized `COC(=O)[C@@H]1C[C@H]1[C@@H](NC(=O)c1cc(C)on1)c1ccccc1` .
Result :: active

Query :: `CC(C)C[C@@H](CC(=O)N[C@@H](CCC(=O)O)CC(=O)O)NC(=O)[C@@H]1CCCC[C@H]1NC(=O)C[C@@H](NC(=O)C[C@H](Cc1ccccc1)NC(=O)[C@@H]1CCCC[C@H]1N)C(C)C` ?
Result :: inactive

----------
- protocol.details: qHTS assay for small molecule agonists of the antioxidant response element (ARE) signaling pathway measured by Nrf2-dependant transcriptional activity - cell viability counter screen (AID 720653); further: on the % scale 0 is the no-effect control and ±100 the full control effect
- condition.notes: ARE-bla HepG2 viability, CellTiter-Glo ATP luminescence, 16 h; hits give low values
Records with an inconclusive call do not appear. Active and inactive are the calls of the source. Calls follow the shape of the dose curve; as a rule, active = well fitted cell-killing curve with a large enough effect in the repeat runs; inconclusive = weak or mixed curves; inactive = flat fitted curve, though single readings scatter.
Assignment: determine reported max response for the given compounds.

>>> result("O=c1oc2cc(O)ccc2c2oc3cc(O)ccc3c12")
"-3.33% (inactive)"

Could you tell me max response for each of these compounds? They are listed below.
1. O=[N+]([O-])c1cc([N+](=O)[O-])c2ccc(S(=O)(=O)O)cc2c1O
2. Oc1ccc2cc(SSc3ccc4cc(O)ccc4c3)ccc2c1
3. C/C=C1\C(=O)C[C@H]2[C@@H]3CCC4=CC(=O)CC[C@]4(C)[C@H]3CC[C@]12C
4. C=C(C)c1ccccc1

Result ::
1: 17.2% (inactive); 2: -8.42% (inactive); 3: -11.4% (inactive); 4: -8.93% (inactive)

Can you give me max response for all of these, one by one?
1. Cc1cc(C(C)(C)CC(C)(C)C)ccc1OCCOCC[N+](C)(C)Cc1ccccc1
2. O=Cc1ccc(Cl)c(Cl)c1
3. O=C1OC(O)C(C(Cl)Cl)=C1Cl (stereo not drawn)

Result ::
1: -8.26% (inactive); 2: 7.11% (inactive); 3: -27.5% (inactive)
